Values were extracted from patent US6066484A.

Documented Relative activity across a set of compounds
- Test system: purine nucleosidase
- Measurement Notes: Effect of metal ions on purine nucleosidase
- Assay type: biochemical, Ochrobactrum anthropi
- Condition Parameters: 1 mM metal, pH 4.5, 30° C., 40 minutes; not added = 100.0
Respond numerically; units are % and should not be typed.

Please review the following examples before continuing.
| Compound Structure | Unit | Readout Number |
| --- | --- | --- |
| O=S(=O)([O-])[O-].[Cu+2] | % | 42.7 |
| [Cl][Ni][Cl] | % | 91.3 |
| [Cl][Fe]([Cl])[Cl] | % | 100.0 |
| O=S(=O)([O-])[O-].[Zn+2] | % | 74.9 |
| [Cl-].[K+] | % | 100.9 |

Checklist item: Relative activity tested on purine nucleosidase, entry [Cl][Mn][Cl] , value? 65.5

====

- Tested on: purine nucleosidase
- Measurement Notes: Substrate specificity of purine nucleosidase by thin-layer chromatography
- Assay type: biochemical, Ochrobactrum anthropi
- Condition Parameters: thin-layer chromatography
Experimental Readout: Relative activity

Please review the following examples before continuing.
| Compound | Relative activity |
| --- | --- |
| Nc1ncnc2c1ncn2[C@H]1C[C@H](O)[C@@H](CO)O1 [2'-deoxyadenosine] | ++ (<31%) |
| Nc1ncnc2c1ncn2[C@@H]1O[C@H](COP(=O)(O)O)[C@@H](O)[C@H]1O [5'-AMP, 5'-adenosine monophosphate] | ++ (<31%) |
| Nc1ncnc2c1ncn2[C@@H]1O[C@H](CO)C[C@H]1O [cordycepin] | ++ (<31%) |
| Nc1nc2c(ncn2[C@@H]2O[C@H](COP(=O)(O)O)[C@@H](O)[C@H]2O)c(=O)[nH]1 [5'-GMP, 5'-guanosine monophosphate] | + (<10%) |
| O=c1ccn([C@@H]2O[C@H](COP(=O)(O)O)[C@@H](O)[C@H]2O)c(=O)[nH]1 [5'-UMP] | - |
| O=c1[nH]cnc2c1ncn2[C@@H]1O[C@H](COP(=O)(O)OP(=O)(O)O)[C@@H](O)[C@H]1O [5'-IDP] | - |
| O=c1[nH]c(=O)c2ncn([C@@H]3O[C@H](CO)[C@@H](O)[C@H]3O)c2[nH]1 [xanthosine] | ++++ (>50%) |
| Nc1ccn([C@@H]2O[C@H](CO)[C@@H](O)[C@H]2O)c(=O)n1 [cytidine] | - |

Can you look up the measured Relative activity of Nc1ccn([C@@H]2O[C@H](CO)[C@@H](O)[C@H]2OP(=O)(O)O)c(=O)n1 [2'-CMP] for me? + (<10%)

Can you look up the measured Relative activity of NC(=O)c1ccc[n+]([C@@H]2O[C@H](COP(=O)([O-])OP(=O)(O)OC[C@H]3O[C@@H](n4cnc5c(=O)[nH]cnc54)[C@H](O)[C@@H]3O)[C@@H](O)[C@H]2O)c1 [deamino NAD] for me? -

====

- System: purine nucleosidase
- Measurement Notes: Substrate specificity of purine nucleosidase by thin-layer chromatography
- Format: biochemical, Ochrobactrum anthropi
- Design: key: -: not reacted; +: <10%; ++: <31%; +++: <50%; ++++: >50%
- Condition Parameters: thin-layer chromatography
Experimental Readout: Relative activity

Please review the following examples before continuing.
| Compound Structure | Assayed Target | Experimental Readout | Result |
| --- | --- | --- | --- |
| O=c1ccn([C@@H]2O[C@H](CO)[C@@H](O)[C@H]2O)c(=O)[nH]1 | purine nucleosidase | Relative activity | - |
| Nc1nc2c(ncn2[C@@H]2O[C@H](CO)[C@@H](O)[C@H]2O)c(=O)[nH]1 | purine nucleosidase | Relative activity | ++++ (>50%) |
| Cc1cn([C@H]2C[C@H](O)[C@@H](CO)O2)c(=O)[nH]c1=O | purine nucleosidase | Relative activity | - |
| Nc1ncnc2c1ncn2[C@@H]1O[C@H](CO)[C@@H](O)[C@H]1O | purine nucleosidase | Relative activity | ++++ (>50%) |
| NC(=O)c1ccc[n+]([C@@H]2O[C@H](COP(=O)([O-])OP(=O)(O)OC[C@H]3O[C@@H](n4cnc5c(N)ncnc54)[C@H](OP(=O)(O)O)[C@@H]3O)[C@@H](O)[C@H]2O)c1 | purine nucleosidase | Relative activity | - |

Checklist item: Relative activity tested on purine nucleosidase, entry O=c1[nH]cc([C@@H]2O[C@H](CO)[C@@H](O)[C@H]2O)c(=O)[nH]1 , value? -
